All figures here come from patent US10336729B2.

subject-of-test: AOC3 (Homo sapiens (Human), UniProt Q16853)
Sequence (Q16853 whole entry): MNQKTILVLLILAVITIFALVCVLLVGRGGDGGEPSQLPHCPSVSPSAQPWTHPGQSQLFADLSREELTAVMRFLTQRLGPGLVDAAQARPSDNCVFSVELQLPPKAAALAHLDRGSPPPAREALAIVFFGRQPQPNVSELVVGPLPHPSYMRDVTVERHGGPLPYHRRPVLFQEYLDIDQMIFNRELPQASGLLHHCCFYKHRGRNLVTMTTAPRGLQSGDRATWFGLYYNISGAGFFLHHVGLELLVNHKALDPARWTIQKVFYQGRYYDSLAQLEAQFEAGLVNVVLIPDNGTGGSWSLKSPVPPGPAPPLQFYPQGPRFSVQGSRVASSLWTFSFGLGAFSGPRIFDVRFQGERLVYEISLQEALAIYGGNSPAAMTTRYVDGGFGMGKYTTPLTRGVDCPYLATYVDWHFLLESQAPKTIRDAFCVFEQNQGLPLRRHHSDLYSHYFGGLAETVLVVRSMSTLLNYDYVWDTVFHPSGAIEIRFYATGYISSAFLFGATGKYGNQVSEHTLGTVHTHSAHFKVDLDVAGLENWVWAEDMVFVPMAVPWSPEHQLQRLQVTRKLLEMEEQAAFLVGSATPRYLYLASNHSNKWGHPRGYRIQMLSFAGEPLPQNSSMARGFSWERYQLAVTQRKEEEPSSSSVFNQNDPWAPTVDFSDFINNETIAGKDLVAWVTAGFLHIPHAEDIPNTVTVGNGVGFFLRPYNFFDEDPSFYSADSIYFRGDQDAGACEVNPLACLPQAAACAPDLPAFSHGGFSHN
experiment-summary: MAO-Glo AOC3 assay
test-context: recombinant CHO cells overexpressing AOC3 enzyme
Experimental: The MAO-Glo™ Assay (commercial available from PROMEGA, #V1402) provides a sensitive method for the measurement of monoamine oxidase (MAO) activity (Valley, M. P. et al., 2006, Anal. Biochem. 359: 238-246) from a variety of tissues, biofluids or recombinant expressed or purified enzymes. […] After a spontaneous elimination and a catalyzed esterase reaction, the turnover of the luciferine by the luciferase is recorded as a signal of AOC3 activity. […]
measurement-label: IC50 (nM)

[[record]]
chem_smiles = "N#Cc1ccc(N2CCN(c3c(C#N)ccc(COC(=O)NC(=N)N)c3F)CC2)nc1"
result_units = "nM"
measured_result = 115

[[record]]
chem_smiles = "COc1cnc(C2=CCN(c3c(C#N)ccc(COC(=O)NC(=N)N)c3F)CC2)nc1"
result_units = "nM"
measured_result = 77

[[record]]
chem_smiles = "Cc1cnc(C2=CCN(c3c(C#N)ccc(COC(=O)NC(=N)N)c3F)CC2)nc1"
result_units = "nM"
measured_result = 85

